target: insulin receptor on mouse adipocytes (mouse, UniProt P15208 28-1372); test: cell-based or functional assay
Sequence (P15208 28-1372): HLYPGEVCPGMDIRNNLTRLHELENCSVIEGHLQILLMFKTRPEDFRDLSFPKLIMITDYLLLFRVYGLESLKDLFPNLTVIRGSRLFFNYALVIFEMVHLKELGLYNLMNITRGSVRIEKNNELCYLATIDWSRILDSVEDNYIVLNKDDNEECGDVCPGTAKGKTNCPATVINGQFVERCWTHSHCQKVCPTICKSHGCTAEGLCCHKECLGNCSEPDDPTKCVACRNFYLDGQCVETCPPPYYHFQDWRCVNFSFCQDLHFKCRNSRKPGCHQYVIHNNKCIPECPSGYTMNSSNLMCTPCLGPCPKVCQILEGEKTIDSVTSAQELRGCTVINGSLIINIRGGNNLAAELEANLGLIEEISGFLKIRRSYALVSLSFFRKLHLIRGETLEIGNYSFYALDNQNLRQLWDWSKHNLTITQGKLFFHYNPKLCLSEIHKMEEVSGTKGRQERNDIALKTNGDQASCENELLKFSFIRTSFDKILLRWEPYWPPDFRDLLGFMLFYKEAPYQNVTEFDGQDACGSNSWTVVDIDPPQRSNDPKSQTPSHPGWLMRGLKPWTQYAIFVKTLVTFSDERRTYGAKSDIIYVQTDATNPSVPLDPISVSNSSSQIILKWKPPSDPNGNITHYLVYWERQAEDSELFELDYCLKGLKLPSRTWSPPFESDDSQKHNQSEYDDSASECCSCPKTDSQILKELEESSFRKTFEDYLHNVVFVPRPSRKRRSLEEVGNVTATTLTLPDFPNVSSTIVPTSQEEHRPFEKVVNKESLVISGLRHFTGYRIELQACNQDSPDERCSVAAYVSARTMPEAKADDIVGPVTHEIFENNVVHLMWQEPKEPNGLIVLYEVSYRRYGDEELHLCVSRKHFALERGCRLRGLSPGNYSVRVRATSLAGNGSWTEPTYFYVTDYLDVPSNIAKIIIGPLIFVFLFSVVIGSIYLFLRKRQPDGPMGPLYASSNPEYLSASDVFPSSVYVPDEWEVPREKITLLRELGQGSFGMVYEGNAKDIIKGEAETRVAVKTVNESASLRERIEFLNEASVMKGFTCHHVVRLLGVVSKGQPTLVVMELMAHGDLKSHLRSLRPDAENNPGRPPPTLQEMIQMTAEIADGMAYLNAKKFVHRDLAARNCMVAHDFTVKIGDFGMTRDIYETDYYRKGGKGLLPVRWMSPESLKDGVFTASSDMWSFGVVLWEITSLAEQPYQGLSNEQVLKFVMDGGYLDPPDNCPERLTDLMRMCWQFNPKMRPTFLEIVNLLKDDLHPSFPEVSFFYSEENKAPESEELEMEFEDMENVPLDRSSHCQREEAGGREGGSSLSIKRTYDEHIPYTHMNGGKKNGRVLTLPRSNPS
Ends that are not written are not given here.
Note to self: EC50 (FFC) under 2 nM means Criterion met, ties and anything higher get Criterion not met.

binder	assigned.category
SLEEHWHQVECEVYHRHCPSESFYDWFERQL [698]	Criterion not met
Ac-SLEEEWAQIQCEVWGRGCQRPEPFYDWFERQL (cysteine pairing not given here) [S642]	Criterion met
Ac-SLEEEWAQIQCEVWGRGCPSESFYDWFERQLG (cysteine pairing not given here) [S671]	Criterion met
SLEEYWAQVECEVYGRGCPSESFYDWFERQL [689]	Criterion not met
SLEEEWAQVECEVYHRGCPSESFYDWFERQL [695]	Criterion not met
HQLEEEWQAIQCELWGRGCPSEDFYDWFEAQLHA [616]	Criterion met
SLEEEWGQVECEVYGRGCPSESFYDWFERQL [681]	Criterion not met
GSLDESFYDWFERQLGKKY [670]	Criterion not met
Ac-SLEEEWAQIQCEVWGRGCPSESFYGWFERQLG (cysteine pairing not given here) [S733]	Criterion met
Ac-HLEEEWSEIQCELWGRGCPSEDFYDWFEAQLHA (cysteine pairing not given here) [620]	Criterion not met
Ac-SLEEEWAQIQCEVWGRGCPSESFYGWFQAQL (cysteine pairing not given here) [668]	Criterion not met
SLEEEWAQVECEVYGRHCPSESFYDWFERQL [692]	Criterion not met
Ac-SLEEEWAQIQCEVWGRGCPSESFYDWFERQL (cysteine pairing not given here) [S636]	Criterion met
Ac-SLEEEWAQIQCEVWGRGCQRPEPFYDWFAEQLDD (cysteine pairing not given here) [655]	Criterion met
SLEEEWAQIECEVYGRGCPSVRGFQGGTVWPGYEWLRNAAKK [S626]	Criterion not met
Ac-SLEEEWAQIQAEVWGRGAPSESFYDWFERQL [672]	Criterion not met
SLEEHWAQVECEVYGRGCPSESFYDWFERQL [680]	Criterion not met
SLEEVWAQVECEVYGRGCPSESFYDWFERQL [690]	Criterion not met
Ac-HGLEEEWAQIQCEVWGRGCPSESFYDWFEAQLHA (cysteine pairing not given here) [639]	Criterion met
SLEEHWHQVECEVYGRGCPSESFYDWFERQL [697]	Criterion not met
SLEEEWAQVECEVYGRFCPSESFYDWFERQL [694]	Criterion not met

Data origin: patent US20100298213A1
